system: Ab-15
Sequence (heavy, as listed by the source, chain 1 of 2): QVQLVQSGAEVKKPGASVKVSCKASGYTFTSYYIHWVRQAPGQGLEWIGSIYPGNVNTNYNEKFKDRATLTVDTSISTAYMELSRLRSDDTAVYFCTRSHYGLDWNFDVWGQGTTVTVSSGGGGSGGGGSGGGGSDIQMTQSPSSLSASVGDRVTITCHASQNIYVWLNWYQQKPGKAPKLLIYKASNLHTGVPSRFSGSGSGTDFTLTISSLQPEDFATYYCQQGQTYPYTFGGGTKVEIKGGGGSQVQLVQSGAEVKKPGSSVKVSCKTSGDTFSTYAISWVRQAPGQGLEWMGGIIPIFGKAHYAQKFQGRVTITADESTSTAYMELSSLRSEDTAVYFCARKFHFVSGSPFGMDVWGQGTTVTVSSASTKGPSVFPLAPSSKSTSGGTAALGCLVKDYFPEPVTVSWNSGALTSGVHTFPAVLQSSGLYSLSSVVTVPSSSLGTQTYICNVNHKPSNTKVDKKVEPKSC
Sequence (light, as listed by the source, chain 2 of 2): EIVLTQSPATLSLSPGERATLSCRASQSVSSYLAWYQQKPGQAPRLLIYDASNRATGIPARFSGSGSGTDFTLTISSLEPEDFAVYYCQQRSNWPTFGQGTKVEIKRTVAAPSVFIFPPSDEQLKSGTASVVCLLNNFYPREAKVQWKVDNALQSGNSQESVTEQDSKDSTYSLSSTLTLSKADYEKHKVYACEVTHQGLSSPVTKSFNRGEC
assay.notes: BLI (Octet): biotinylated peptide on sensor, Ab-15 titrated, 1:1 model
Where no end group is shown, it is not given here.
# pKd values compiled below
Please treat pKd as minus the base-10 logarithm of the molar concentration.

Below are worked cases with known answers.
{"columns": ["binder", "metric", "readout.number"],
 "data": [
  ["MDWCPRDLWVHCFA (cysteine pairing not given here; also: biotinylated, site not given here, CD28 peptide mask) [Peptide-41]", "pKd", 7.82],
  ["QDWCPRDLWVHCFA (cysteine pairing not given here; also: biotinylated, site not given here, CD28 peptide mask) [Peptide-56]", "pKd", 7.61],
  ["KDWCPRDLWVHCFA (cysteine pairing not given here; also: biotinylated, site not given here, CD28 peptide mask) [Peptide-62]", "pKd", 7.58],
  ["RDWCPRDLWVHCFA (cysteine pairing not given here; also: biotinylated, site not given here, CD28 peptide mask) [Peptide-53]", "pKd", 7.69],
  ["TDWCPRDLWVHCFA (cysteine pairing not given here; also: biotinylated, site not given here, CD28 peptide mask) [Peptide-66]", "pKd", 7.59]
]}

stdin: Need pKd of EDWCPRDLWVHCFA (cysteine pairing not given here; also: biotinylated, site not given here, CD28 peptide mask) [Peptide-57] , thanks.
stdout: 7.63
